# protocol.notes: Maximum solubility of acetazolamide with commercial HPBCD preparations (Example 3)
# Format: physicochemical
# particulars: hpbcd solution, HPBCD source A, Roquette (RE No. 446601); read-out: maximum solubility
measure: solubility (mg/mL)
I only need the number, in mg/mL, no unit after it.

Requested read-out: solubility. Entry: CC(=O)Nc1nnc(S(N)(=O)=O)s1 [acetazolamide]
1
